# System: M14 melanoma
# assay.notes: NCI tumour cell line growth inhibition, 48 h
measured.endpoint: TGI (µM)
Numbers only here, please. The scale is µM.

| molecule | value.units | observed.result |
| --- | --- | --- |
| CN(C)Cc1cc(N=Nc2ccc(Cl)c(Cl)c2)ccc1O | µM | 31.9 |
| COc1ccc2c(c1)CC[C@@H]1[C@@H]2CC[C@]2(C)/C(=N/OCCN3CCCCC3)CC[C@@H]12 | µM | 5.88 |

For O=C1CC(O)c2c(Cl)sc(Cl)c21 (configuration not stated) the molecule record lists TGI as 32.7

---

# Test system: MOLT-4 leukemia
Give one outcome, nothing more. List: true = active, false = inactive

*Q* Please state the recorded outcome for this molecule: "CN(C)CCNc1cccc2sc3ccc(O)cc3c(=O)c12"
*A* false

*Q* Please state the recorded outcome for this molecule: "CCOC(=O)/C=C/c1ccc(C(=O)OCC)[nH]1"
*A* false

*Q* Please state the recorded outcome for this molecule: "COC(=O)c1ccc2c(c1)c1c(C)c3cnccc3c(C)c1n2C"
*A* true
